- TESTED_ON: CCK2 receptor (Homo sapiens, UniProt P32239)
- Construct: analyzed for ZFP expression as well as CCK2R induction upon addition of doxycycline to the culture medium; endogenous in cells
- Sequence (P32239 whole entry): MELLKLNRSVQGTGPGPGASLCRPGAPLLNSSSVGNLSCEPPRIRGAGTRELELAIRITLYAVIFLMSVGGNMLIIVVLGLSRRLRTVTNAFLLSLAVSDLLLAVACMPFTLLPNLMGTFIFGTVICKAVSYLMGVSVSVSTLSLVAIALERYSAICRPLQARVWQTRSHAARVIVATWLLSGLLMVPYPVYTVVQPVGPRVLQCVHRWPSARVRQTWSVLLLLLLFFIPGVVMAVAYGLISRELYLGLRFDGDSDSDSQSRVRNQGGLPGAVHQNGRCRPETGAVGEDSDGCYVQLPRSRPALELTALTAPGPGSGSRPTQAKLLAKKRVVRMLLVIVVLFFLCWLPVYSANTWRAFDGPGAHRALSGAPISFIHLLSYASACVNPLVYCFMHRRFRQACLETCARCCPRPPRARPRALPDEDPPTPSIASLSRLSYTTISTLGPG
- ASSAY_NAME: CCK2 binding assay ([125I]-BH-CCK-8S displacement, HEKZFP membranes)
- DETAILS: membranes of doxycycline-induced HEKZFP cells; 20 pM [125I]-BH-CCK-8S; 60 min at 21±3° C.; read-out: CCK2 pKi (converted)
- Procedure: 2. CCK2 Assay Development and Data Generation Zinc Finger Proteins (ZFP) specific for the CCK2R gene were identified by Sangamo Biosciences. […] After 2 weeks of selection in culture medium containing […] Zeocin (Invitrogen), sixty drug-resistant stable clones were isolated and analyzed for ZFP expression as well as CCK2R induction upon addition of doxycycline to the culture medium. […] The pKi values were determined using the equation of Y.-C. […]
# Lookup of reported Ki keyed by entry
Express your answer in nM, writing the number without its unit.

C[C@@H](NC(=O)c1ccc(Cl)cc1NS(=O)(=O)c1cccc2nsnc12)[C@@H](O)c1ccccc1
2000
COC(=O)[C@H](Cc1csc2ccccc12)NC(=O)c1ccc(Cl)cc1NS(=O)(=O)c1cccc2nccnc12
794
COC(=O)[C@H](Cc1ccc(F)c(Br)c1)NC(=O)c1cc(Cl)c(Cl)cc1NS(=O)(=O)c1cccc2nsnc12
251
COC(=O)[C@H](Cc1ccc(Cl)c(I)c1)NC(=O)c1ccc(I)cc1NS(=O)(=O)c1cccc2nsnc12
316
COC(=O)[C@H](Cc1ccc(F)c(Br)c1)NC(=O)c1ccc(I)cc1NS(=O)(=O)c1cccc2nccnc12
50.1

Data point: `COC(=O)[C@H](Cc1ccc(Br)s1)NC(=O)c1ccc(Cl)cc1NS(=O)(=O)c1cccc2nccnc12` ; Ki = 501

Looking up `C[C@@H](NC(=O)c1ccc(Cl)cc1NS(=O)(=O)c1cccc2nsnc12)[C@@H](O)c1ccc(Cl)cc1` , I found its Ki recorded as 1000

###

// reported Ki per item
- TESTED_ON: CCK-1 receptor (Homo sapiens, UniProt P32238)
- Construct: expressed in transfected cells; host or cells: CHO-K1
- Sequence (P32238 1-428): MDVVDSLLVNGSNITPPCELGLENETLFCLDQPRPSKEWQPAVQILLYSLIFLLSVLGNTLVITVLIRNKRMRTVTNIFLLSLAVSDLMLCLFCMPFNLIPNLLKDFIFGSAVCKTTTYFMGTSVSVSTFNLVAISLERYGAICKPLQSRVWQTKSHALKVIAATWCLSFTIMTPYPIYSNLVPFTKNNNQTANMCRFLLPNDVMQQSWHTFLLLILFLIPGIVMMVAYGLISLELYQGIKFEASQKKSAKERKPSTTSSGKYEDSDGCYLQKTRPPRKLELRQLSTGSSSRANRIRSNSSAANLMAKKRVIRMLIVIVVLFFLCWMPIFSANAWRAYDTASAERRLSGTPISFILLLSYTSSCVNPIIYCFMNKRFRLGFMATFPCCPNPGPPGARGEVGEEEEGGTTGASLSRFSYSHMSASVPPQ
- ASSAY_NAME: CCK1 binding assay ([125I]-BH-CCK-8S displacement, CHO-K1 membranes)
- DETAILS: membranes of CHO-K1 cells stably transfected with the CCK-1 receptor; 20 pM [125I]-BH-CCK-8S; 0.3 μM PD-134,308 present; 60 min at 21±3° C.; read-out: CCK1 pKi (converted)
Write the answer as a number in µM, unit excluded.

O=C(N[C@@H](Cc1ccc(Cl)c(Cl)c1)C(=O)NCc1ccccc1)c1ccc(Cl)cc1NS(=O)(=O)c1cccc2nsnc12
0.1

In plain terms, `COC(=O)[C@H](Cc1ccc(Cl)c(I)c1)NC(=O)c1ccc(I)cc1NS(=O)(=O)c1cccc2nccnc12` has a documented Ki of 0.0794

Measured Ki, `O=C(N[C@H](Cc1ccc(Cl)c(Cl)c1)C(=O)O)c1ccc(I)cc1NS(=O)(=O)c1cccc2nccnc12` : 0.0794

The compound listed as `O=C(N[C@@H](Cc1csc2ccccc12)C(=O)O)c1ccc(Cl)cc1NS(=O)(=O)c1cccc2nccnc12` shows Ki equal to 2

###

log10 Ki overview
- TESTED_ON: CCK2 receptor (Homo sapiens, UniProt P32239)
- Construct: analyzed for ZFP expression as well as CCK2R induction upon addition of doxycycline to the culture medium; endogenous in cells
- ASSAY_NAME: CCK2 binding assay ([125I]-BH-CCK-8S displacement, HEKZFP membranes)
- DETAILS: membranes of doxycycline-induced HEKZFP cells; 20 pM [125I]-BH-CCK-8S; 60 min at 21±3° C.; read-out: CCK2 pKi (converted)
- Description: 2. CCK2 Assay Development and Data Generation Zinc Finger Proteins (ZFP) specific for the CCK2R gene were identified by Sangamo Biosciences. […] After 2 weeks of selection in culture medium containing […] Zeocin (Invitrogen), sixty drug-resistant stable clones were isolated and analyzed for ZFP expression as well as CCK2R induction upon addition of doxycycline to the culture medium. […] The pKi values were determined using the equation of Y.-C. […]
Kindly note that the scale is log10 and the underlying Ki is in nM.

Here's what some known entries look like.
N#Cc1ccc(C[C@H](NC(=O)c2ccc(Cl)cc2NS(=O)(=O)c2cccc3nccnc23)C(=O)O)cc1
1.50
COC(=O)[C@H](Cc1ccc(Cl)cc1)NC(=O)c1ccc(Cl)cc1NS(=O)(=O)c1ccc(F)cc1F
3.40
O=C(O)C[C@H](Cc1ccc(Cl)c(Cl)c1)NC(=O)c1ccc(Cl)cc1NS(=O)(=O)c1cccc2nccnc12
2.00
O=C(N[C@@H](Cc1ccc(Cl)c(Cl)c1)C(=O)NCc1ccc(F)cc1)c1ccc(Cl)cc1NS(=O)(=O)c1cccc2nsnc12
2.50
Cc1ccc(C(=O)NC(CO)Cc2ccc(Cl)cc2)c(NS(=O)(=O)c2cccc3nsnc23)c1 (racemic)
1.80

log10 Ki reading for CC(CNC(=O)c1c(Cl)cccc1NS(=O)(=O)c1cccc2nsnc12)c1ccc(Cl)c(Cl)c1 (stereo not shown) : 3.30

// log10 Ki value for `O=C(NCCc1ccc(Cl)cc1Cl)c1ccc(Cl)cc1NS(=O)(=O)c1cccc2nsnc12` : 3.80

Looking up `O=C(N[C@@H](Cc1ccc(Cl)c(Cl)c1)C(=O)Nc1ccccc1)c1ccc(Cl)cc1NS(=O)(=O)c1cccc2nsnc12` , I found its log10 Ki recorded as 2.80

For `O=C(N[C@@H](Cc1cccc([N+](=O)[O-])c1)C(=O)O)c1ccc(Cl)cc1NS(=O)(=O)c1cccc2nccnc12` the molecule record lists log10 Ki as 1.50

Value of measured log10 Ki for the entry `O=C(N[C@@H](Cc1cccc(Br)c1)C(=O)O)c1ccc(I)cc1NS(=O)(=O)c1cccc2nsnc12` : 0.70

Item: CC(CNC(=O)c1ccc(I)cc1NS(=O)(=O)c1cccc2nccnc12)c1ccc(Cl)c(Cl)c1 (racemic) [Example 61] | log10 Ki: 2.60

// `O=C(N[C@@H](Cc1ccc(Cl)c(Br)c1)C(=O)O)c1cc(Cl)c(Cl)cc1NS(=O)(=O)c1cccc2nccnc12` : log10 Ki value = 1.80

Note to self: log10 Ki recorded for CC(CNC(=O)c1ccc(Cl)cc1NS(=O)(=O)c1cccc2nsnc12)c1ccc(Cl)c(Cl)c1 (racemic) was 2.70

// log10 Ki lookup, molecule = `COC(=O)[C@H](Cc1ccc(F)c(Br)c1)NC(=O)c1ccc(Cl)cc1NS(=O)(=O)c1cccc2nsnc12` , result: 2.30

Entry CC(Cc1ccc(Cl)cc1)NC(=O)c1ccc(Br)cc1NS(=O)(=O)c1cccc2scnc12 (stereo not shown) — recorded log10 Ki = 2.80

So, `O=C(N[C@@H](Cc1ccc(Cl)c(Br)c1)C(=O)O)c1ccc(I)cc1NS(=O)(=O)c1cccc2nsnc12` ? Its log10 Ki was 1.20

Form: molecule = `O=C(NCCc1ccc(Br)cc1)c1ccc(Cl)cc1NS(=O)(=O)c1c(F)cccc1F` ; log10 Ki = 3.20

Recorded log10 Ki (molecule `O=C(N[C@@H](Cc1ccsc1)C(=O)O)c1ccc(Cl)cc1NS(=O)(=O)c1cccc2nsnc12` ): 1.50

Record `COC(=O)[C@@H](NC(=O)c1ccc(I)cc1NS(=O)(=O)c1c(F)cccc1F)[C@H](C)c1ccc(Cl)c(Cl)c1` . Reported log10 Ki: 3.30

The molecule `CCOC(=O)[C@H](Cc1ccc(F)c(Br)c1)NC(=O)c1cc(Cl)c(Cl)cc1NS(=O)(=O)c1cccc2nsnc12` showed log10 Ki equal to 2.60

Data point: `O=C(N[C@@H](Cc1ccc(Cl)c(Cl)c1)C(=O)O)c1ccc(Cl)cc1NS(=O)(=O)c1c(F)cccc1F` ; log10 Ki = 2.30

get_value(item= CC(CNC(=O)c1ccc(Cl)cc1NS(=O)(=O)c1c(F)cccc1F)c1ccc([N+](=O)[O-])cc1 (stereo not shown) , readout=log10 Ki) returns 3.60

Quick note, log10 Ki for `O=C(N[C@@H](Cc1ccc(Cl)c(Cl)c1)C(=O)O)c1ccc(I)cc1NS(=O)(=O)c1cccc2nccnc12` landed at 1.20

// sample `COC(=O)[C@H](Cc1ccc(Cl)c(Br)c1)NC(=O)c1ccc(I)cc1NS(=O)(=O)c1cccc2nsnc12` , its log10 Ki was 2.60

Reported log10 Ki of CC(CNC(=O)c1ccc(I)cc1NS(=O)(=O)c1c(F)cccc1F)c1ccc(Cl)c(Cl)c1 (stereo not shown) : 3.50

Query CC(CNC(=O)c1ccc(Br)cc1NS(=O)(=O)c1c(F)cccc1F)c1ccc(Cl)c(Cl)c1 (stereo not shown) yields log10 Ki of 3.40

In plain terms, CC(CNC(=O)c1ccc(Cl)cc1NS(=O)(=O)c1ccc(F)cc1F)c1ccc(Cl)c(Cl)c1 (racemic) has a documented log10 Ki of 3.90

get_value(item= CC(CNC(=O)c1ccc(Br)cc1NS(=O)(=O)c1cccc2nsnc12)c1ccc(Cl)c(Cl)c1 (stereo not shown) , readout=log10 Ki) returns 2.50

Measured values drawn from patent US7855292B2 for this set.
